test system: large crabgrass (Digitaria sanguinalis); test: Test A preemergence, large crabgrass; type: in vivo; details: 125 g ai/ha, 0 to 100 scale (0 no effect, 100 complete control)
quantity.kind: Plant response rating, Crabgrass, Large

Query: What measured Plant response rating, Crabgrass, Large goes with Cc1cc2nc(C(F)(F)F)c(C[S+]([O-])C3=NOC(C)(C)C3)c(=O)n2o1 (centres unmarked) [Compound 50] ?
Response: 0

Query: Also, CCn1c(=O)c(C[S+]([O-])C2=NOC(C)(C)C2)nc2cccnc21 (centres unmarked) [Compound 38] please.
Response: 0

Query: Also, Cc1con2c(=O)c(C[S+]([O-])C3=NOC(C)(C)C3)c(C(F)(F)F)nc12 (centres unmarked) [Compound 47] please.
Response: 0

Query: Also, CC1(C)CC(S(=O)(=O)Cc2c(C(F)(F)Cl)nc3n(c2=O)CCC3)=NO1 [Compound 18] please.
Response: 90

Query: Also, CC1(C)CC([S+]([O-])Cc2c(C(F)(F)Cl)nc3n(c2=O)CCCS3)=NO1 (centres unmarked) [Compound 36] please.
Response: 30

Query: Also, CC1(C)CC(S(=O)(=O)Cc2c(C(F)(F)F)nc3ccon3c2=O)=NO1 [Compound 42] please.
Response: 50

Query: Also, CC1(C)CC(S(=O)(=O)Cc2c(C(F)(F)F)nc3n(c2=O)CCO3)=NO1 [Compound 2] please.
Response: 90

Query: Also, Cn1c(=O)c(CS(=O)(=O)C2=NOC(C)(C)C2)nc2ccccc21 [Compound 23] please.
Response: 10

Query: Also, CCn1c(=O)c(C[S+]([O-])C2=NOC(C)(C)C2)nc2ccccc21 (centres unmarked) [Compound 29] please.
Response: 0

Query: Also, Cc1con2c(=O)c(CS(=O)(=O)C3=NOC(C)(C)C3)c(C(F)(F)F)nc12 [Compound 56] please.
Response: 0

Query: Also, CC1(C)CC([S+]([O-])Cc2c(C(F)(F)F)nc3n(c2=O)CCS3)=NO1 (centres unmarked) [Compound 5] please.
Response: 40

Query: Also, CC1(C)CC([S+]([O-])Cc2c(C(F)(F)F)nc3cnccn3c2=O)=NO1 (centres unmarked) [Compound 54] please.
Response: 0

Query: Also, CC1(C)CC(S(=O)(=O)Cc2c(C(F)(F)F)nc3n(c2=O)CCCO3)=NO1 [Compound 4] please.
Response: 60

Query: Also, CC1(C)CC(S(=O)(=O)Cc2c(C(F)(F)C(F)(F)F)nc3n(c2=O)CCC3)=NO1 [Compound 22] please.
Response: 90

Query: Also, CC1(C)CC([S+]([O-])Cc2c(C(F)(F)C(F)(F)F)nc3n(c2=O)CCCC3)=NO1 (centres unmarked) [Compound 19] please.
Response: 0

Query: Also, CC1(C)CC(S(=O)(=O)Cc2c(C(F)(F)C(F)(F)F)nc3n(c2=O)CCCO3)=NO1 [Compound 55] please.
Response: 0

Query: Also, CC1(C)CC([S+]([O-])Cc2c(C(F)(F)C(F)(F)F)nc3n(c2=O)CCC3)=NO1 (centres unmarked) [Compound 27] please.
Response: 70

Ref: patent US20100099561A1
